Protocol text: Acute toxicity in ip dosed Swiss-Webster mouse administered as single dose after 7 days
Type: organism-based
Recorded conditions: in vivo
# LD50 at 168 h per entry
Field format: number, assumed mg/kg, no unit text.

{"Compound": "O=C(c1ccc(F)cc1)[C@@H]1CCN2CCCC[C@@H]2C1 (single isomer, unassigned)", "Observable": "LD50 at 168 h", "Experimental value": 193}
{"Compound": "O[C@]1(c2ccc(C(F)(F)F)cc2)CCN2CCCCC2C1 (single isomer, unassigned)", "Observable": "LD50 at 168 h", "Experimental value": 125}
{"Compound": "O[C@@]1(c2ccc(Cl)cc2)CCN2CCCCC2C1 (single isomer, unassigned)", "Observable": "LD50 at 168 h", "Experimental value": 67.5}
{"Compound": "O[C@@]1(c2cccc(C(F)(F)F)c2)CCN2CCCCC2C1 (single isomer, unassigned)", "Observable": "LD50 at 168 h", "Experimental value": 262}
{"Compound": "O=C(c1ccc(F)cc1)[C@H]1CCN2CCCC[C@@H]2C1 (single isomer, unassigned)", "Observable": "LD50 at 168 h", "Experimental value": 86.1}
{"Compound": "O=C(CCCN1CCC(O)(c2ccc(Cl)cc2)CC1)c1ccc(F)cc1", "Observable": "LD50 at 168 h", "Experimental value": 49.7}
{"Compound": "O[C@]1(c2cccc(Cl)c2)CCN2CCCCC2C1 (single isomer, unassigned)", "Observable": "LD50 at 168 h", "Experimental value": 134}
{"Compound": "O[C@@]1(c2ccc(C(F)(F)F)cc2)CCN2CCCCC2C1 (single isomer, unassigned)", "Observable": "LD50 at 168 h", "Experimental value": 130}
{"Compound": "O[C@]1(c2ccc(Cl)cc2)CCN2CCCCC2C1 (stereo partly specified)", "Observable": "LD50 at 168 h", "Experimental value": 229}
{"Compound": "O[C@]1(c2cccc(C(F)(F)F)c2)CCN2CCCCC2C1 (single isomer, unassigned)", "Observable": "LD50 at 168 h", "Experimental value": 137}

Now consider the entry below.
Query: Endpoint output: LD50 at 168 h of O[C@@]1(c2cccc(Cl)c2)CCN2CCCCC2C1 (single isomer, unassigned) . Value?
Result: 180
